Each record here notes measured GI50.
Test system: SNB-75
assay.summary: NCI tumour cell line growth inhibition, 48 h
Active and inactive are the calls of the source. Rule as the data show it: active = GI50 up to about 1.1 µM and inactive = higher.

Known results for compounds:
Looking up CC(=O)O[C@H]1CC[C@@]2(C)C(=CC[C@@H]3[C@@H]2CC[C@]2(C)NC(=O)/C(=C\c4ccccc4)C[C@@H]32)C1 , I found its GI50 recorded as 19.1 µM (inactive)

Looking up COC(=O)[C@](C)(Cc1ccccc1)NC(=O)[C@@H](C)N1[C@@H](c2ccccc2)COC1(C)C , I found its GI50 recorded as 14.4 µM (inactive)

***
Looking up O=S(=O)(c1cc(Cl)ccc1Cl)N1CCN(c2cccc(Cl)c2)CC1 , I found its GI50 recorded as > 100 µM (inactive)

Looking up O=c1ccn(/C=C/C(O)C(O)CO)c(=O)[nH]1 (stereo not given) , I found its GI50 recorded as > 100 µM (inactive)

Looking up Nc1ccc(S(=O)(=O)Nc2nnc(S(N)(=O)=O)s2)cc1 , I found its GI50 recorded as > 100 µM (inactive)

====

Each record here notes measured GI50.
System: RXF 393
assay.summary: NCI tumour cell line growth inhibition, 48 h
The source made the active and inactive calls. No stated cut-off is given here; in the data, active = GI50 up to about 1.1 µM and inactive = higher.

The observed GI50 for C1=CC2SSSC2C1 (stereo unspecified) when tested with RXF 393 stands at > 100 µM (inactive)

Next:
The observed GI50 for O=S(=O)(/N=C(\NO)Nc1ccc(Cl)cc1)c1cccc2nsnc12 when tested with RXF 393 stands at 19.6 µM (inactive)

====

Tested on: COLO 205
assay.summary: NCI tumour cell line growth inhibition, 48 h
Active and inactive are the calls of the source. Cut-off read from the data, not from the text of the source: active = GI50 up to about 1.1 µM and inactive = higher.
readout: GI50

Looking up COc1cc2c(c(OC)c1OC)C(=O)[C@H](Br)[C@H]2NC(=O)NCCCl , I found its GI50 recorded as 50.8 µM (inactive)

***
Looking up CN(C(=O)C12C3C4(C(=O)O)C1(C(=O)N(C)C(C)(C)C)C1C2(C(=O)O)C3(C(=O)N(C)C(C)(C)C)C14C(=O)N(C)C(C)(C)C)C(C)(C)C (stereo not drawn) , I found its GI50 recorded as > 100 µM (inactive)

Looking up CC(=O)OC1CC2C(C)(C)C(=O)C=CC2(C)C2CCC3(C)C(c4ccoc4)OC(=O)C4OC43C12C (stereo not drawn) , I found its GI50 recorded as 7.5 µM (inactive)

Looking up CCOC(=O)c1nc2ccc(C(F)(F)F)cc2nc1NCc1ccc(F)cc1 , I found its GI50 recorded as 27 µM (inactive)

Looking up C/C(CN1C(=O)c2ccccc2C1=O)=N\NS(=O)(=O)c1ccccc1 , I found its GI50 recorded as > 100 µM (inactive)

Looking up N#CC1(C#N)C(c2ccccc2)C=CC(c2ccc([N+](=O)[O-])cc2)C1(C#N)C#N (stereo not drawn) , I found its GI50 recorded as 1.57 µM (inactive)

Looking up NC(=O)N/N=C1\C[C@H]2CCCC[C@H]2C1 , I found its GI50 recorded as > 100 µM (inactive)

Looking up Nc1ccc(CCN2CCN(c3cccc(C(F)(F)F)c3)CC2)cc1 , I found its GI50 recorded as > 100 µM (inactive)

Looking up CNNC1=NS(=O)(=O)c2cc(C)c(Cl)cc2S1 , I found its GI50 recorded as > 10 µM (inactive)

====

Tested on: RPMI-8226
assay.summary: NCI tumour cell line growth inhibition, 48 h
Active and inactive are the calls of the source. Cut-off read from the data, not from the text of the source: active = GI50 up to about 1.1 µM and inactive = higher. Where a SMILES comes first, the peptide text is derived from it. [ ]: non-standard residue; d: D form. The star is where a group is joined. Iva = CC[C](C)(N)C(=O)O; Boc = CC(C)(C)OC(=O)*; X54 = C1CCC(=NO*)C1
Each record here notes measured GI50.

Known results for molecules:
Looking up CS(=O)(=O)Nc1ccc2c(c1)N(S(C)(=O)=O)CC2CCl (stereo not given) , I found its GI50 recorded as > 100 µM (inactive)

Looking up O=c1oc2ccccc2c(-c2ccc(O)cc2)c1Oc1ccc(Cl)cc1 , I found its GI50 recorded as 20.7 µM (inactive)

Looking up CC1=C(SC#N)S(=O)(=O)N(c2ccccc2)C(C)=C1SC#N , I found its GI50 recorded as 28.5 µM (inactive)

Looking up CCC(C)(NC(=O)C(C)NC(=O)OC(C)(C)C)C(=O)NC(C)C(=O)NC(C)(CC)C(=O)ON=C1CCCC1 (stereo not given) (Boc-A[Iva]A[Iva]-X54; configuration not given here) , I found its GI50 recorded as > 100 µM (inactive)

Next:
Looking up Cc1cn(C2CC(O)C(CO)O2)c(=O)[nH]c1=O (stereo not given) , I found its GI50 recorded as 2050 µM (inactive)
